- system.name: insulin receptor (Homo sapiens)
- Sequence (P06213 28-758 limits assumed): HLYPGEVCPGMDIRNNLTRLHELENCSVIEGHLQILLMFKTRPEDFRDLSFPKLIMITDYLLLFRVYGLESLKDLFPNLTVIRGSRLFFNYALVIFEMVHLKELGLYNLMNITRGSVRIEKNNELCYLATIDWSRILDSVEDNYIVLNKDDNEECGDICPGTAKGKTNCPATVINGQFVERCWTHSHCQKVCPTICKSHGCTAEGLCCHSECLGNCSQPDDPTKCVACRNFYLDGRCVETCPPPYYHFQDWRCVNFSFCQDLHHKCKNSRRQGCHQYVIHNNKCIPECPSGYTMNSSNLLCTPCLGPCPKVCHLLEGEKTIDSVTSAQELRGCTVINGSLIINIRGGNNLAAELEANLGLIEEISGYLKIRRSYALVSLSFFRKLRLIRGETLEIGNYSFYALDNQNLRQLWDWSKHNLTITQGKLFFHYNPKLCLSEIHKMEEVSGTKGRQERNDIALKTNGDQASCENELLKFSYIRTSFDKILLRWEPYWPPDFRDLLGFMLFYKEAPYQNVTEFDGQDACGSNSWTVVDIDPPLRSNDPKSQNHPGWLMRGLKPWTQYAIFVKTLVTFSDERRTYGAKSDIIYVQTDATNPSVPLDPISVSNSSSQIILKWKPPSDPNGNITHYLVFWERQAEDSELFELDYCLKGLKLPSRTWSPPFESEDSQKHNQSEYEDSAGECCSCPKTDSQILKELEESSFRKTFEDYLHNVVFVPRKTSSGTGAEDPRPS
- method.description: 125I insulin binding to human placental plasma membranes (HPPM)
- Set-up: Human Placental Plasma Membranes—50 mM Hepes, pH 7.8 @ 4 C containing 100 U/mL Bacitracin; from tissue; host or cells: human placenta, plasma membranes
- settings: human placental plasma membranes
readout.kind: Ki

The measured Ki associated with CCCc1c(OCc2ccc3ccccc3n2)ccc2c1OC(C(=O)O)CC2 (stereo not shown) reads ~2000 µM

* * *

- system.name: insulin receptor (Homo sapiens)
- method.description: 125I insulin binding to human placental plasma membranes (HPPM)
- Parameters: Human Placental Plasma Membranes—50 mM Hepes, pH 7.8 @ 4 C containing 100 U/mL Bacitracin; from tissue; host or cells: human placenta, plasma membranes
- settings: human placental plasma membranes, 16 h at 4° C.
Ki overview
Express your answer in µM, writing the number without its unit.

Answered examples (3):
>>> assay_result("CCCc1c(OCCCOc2cc(O)c(OCC)cc2CC)ccc2c1OC(C(=O)O)CC2 (stereo not shown)")
900
>>> assay_result("O=S(=O)(NS(=O)(=O)C(F)(F)F)c1cc(Cl)cc(Cl)c1OS(=O)(=O)c1cc(Cl)cc(Cl)c1O")
137
>>> assay_result("CCCc1c(OCc2ccc3ccccc3c2)ccc2c1OC(C(=O)O)CC2 (stereo not shown)")
900

Now consider the entry below.
The measured Ki associated with CCCc1c(OCCCOc2cc(O)c(-c3ccc(F)cc3)cc2CC)ccc2c1OC(C(=O)O)CC2 (stereo not shown) reads 370

// provenance: patent US6933272B1
